Recorded OD value by entry
Biological target: T1, human Nectin-4 extracellular antigen hNectin-4-His (human, UniProt Q96NY8 32-349)
T1 construct: C-terminal 8xHis tag included
T1 sequence: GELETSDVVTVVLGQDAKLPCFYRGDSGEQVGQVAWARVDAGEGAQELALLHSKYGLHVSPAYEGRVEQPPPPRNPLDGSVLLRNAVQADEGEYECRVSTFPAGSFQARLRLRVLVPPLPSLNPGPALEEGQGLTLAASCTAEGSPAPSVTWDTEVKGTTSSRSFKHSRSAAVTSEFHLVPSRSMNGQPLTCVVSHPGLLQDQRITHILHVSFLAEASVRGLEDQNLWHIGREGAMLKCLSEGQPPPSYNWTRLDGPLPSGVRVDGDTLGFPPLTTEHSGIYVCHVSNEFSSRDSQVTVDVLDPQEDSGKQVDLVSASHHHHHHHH
Assay: ELISA, phage scFv supernatant 1:50
// return numeric value only (unit: OD, not printed)

Consider the worked cases shown below.
1G8-2G8 scFv (scFv, V domains shown, phage clone supernatant) VH: EVQLVESGGGLVQPGGSLRLSCAASGFNFTNYAMSWVRQAPGKGLEWVSRISTYGDTTHYADSVKGRFTISRDNSKNTLYLQMNSLRAEDTAVYYCARQTEDRSYGYDLDYWGQGTLVTVSS VL: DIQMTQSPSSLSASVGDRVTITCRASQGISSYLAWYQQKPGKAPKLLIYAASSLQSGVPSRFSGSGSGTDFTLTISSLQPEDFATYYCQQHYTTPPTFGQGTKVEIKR	1.58
10F4-1B2 scFv (scFv, V domains shown, phage clone supernatant) VH: EVQLVESGGGLVQPGGSLRLSCAASGFSFGNYWMSWVRQAPGKGLEWVSGIDGHSSYAFYADSVKGRFTISRDNSKNTLYLQMNSLRAEDTAVYYCAREYSDVVDYVSVRTPLDYWGQGTLVTVSS VL: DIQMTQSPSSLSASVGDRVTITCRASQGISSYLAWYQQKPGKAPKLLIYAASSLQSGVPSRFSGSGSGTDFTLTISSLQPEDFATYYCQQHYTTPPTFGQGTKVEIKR	1.64
1G8-1B7 scFv (scFv, V domains shown, phage clone supernatant) VH: EVQLVESGGGLVQPGGSLRLSCAASGYSFSNYAMSWVRQAPGKGLEWVSRISAWGSTNNYADSVKGRFTISRDNSKNTLYLQMNSLRAEDTAVYYCARQTEDRSYGYDLDYWGQGTLVTVSS VL: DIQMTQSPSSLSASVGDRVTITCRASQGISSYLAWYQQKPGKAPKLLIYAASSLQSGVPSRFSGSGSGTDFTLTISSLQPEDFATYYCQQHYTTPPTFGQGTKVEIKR	1.56
10F4-1G8 scFv (scFv, V domains shown, phage clone supernatant) VH: EVQLVESGGGLVQPGGSLRLSCAASGFNFSDFDMSWVRQAPGKGLEWVSVIKPSGDYINYADSVKGRFTISRDNSKNTLYLQMNSLRAEDTAVYYCAREYSDVVDYVSVRTPLDYWGQGTLVTVSS VL: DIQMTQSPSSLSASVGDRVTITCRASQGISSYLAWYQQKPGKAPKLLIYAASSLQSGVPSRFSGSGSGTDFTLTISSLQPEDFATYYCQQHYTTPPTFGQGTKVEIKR	1.52
1G8-1A7 scFv (scFv, V domains shown, phage clone supernatant) VH: EVQLVESGGGLVQPGGSLRLSCAASGYTFDSYAMSWVRQAPGKGLEWVSRIKTTDDGKSYADSVKGRFTISRDNSKNTLYLQMNSLRAEDTAVYYCARQTEDRSYGYDLDYWGQGTLVTVSS VL: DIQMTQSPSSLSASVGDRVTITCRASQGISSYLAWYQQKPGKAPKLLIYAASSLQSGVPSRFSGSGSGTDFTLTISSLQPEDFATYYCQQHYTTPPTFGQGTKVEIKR	1.57
1G8-2D11 scFv (scFv, V domains shown, phage clone supernatant) VH: EVQLVESGGGLVQPGGSLRLSCAASGYSFSGNAMSWVRQAPGKGLEWVSRIDGWGSYTDYADSVKGRFTISRDNSKNTLYLQMNSLRAEDTAVYYCARQTEDRSYGYDLDYWGQGTLVTVSS VL: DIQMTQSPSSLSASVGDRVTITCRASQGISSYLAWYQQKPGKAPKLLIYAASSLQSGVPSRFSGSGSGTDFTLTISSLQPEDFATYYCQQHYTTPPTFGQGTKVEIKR	1.53
10F4-1B7 scFv (scFv, V domains shown, phage clone supernatant) VH: EVQLVESGGGLVQPGGSLRLSCAASGFNFSGFDMSWVRQAPGKGLEWVSGIKAYKSTADYADSVKGRFTISRDNSKNTLYLQMNSLRAEDTAVYYCAREYSDVVDYVSVRTPLDYWGQGTLVTVSS VL: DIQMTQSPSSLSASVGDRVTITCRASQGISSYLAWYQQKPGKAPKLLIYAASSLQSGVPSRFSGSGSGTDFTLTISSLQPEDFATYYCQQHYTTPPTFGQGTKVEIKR	1.6
10F4-2A5 scFv (scFv, V domains shown, phage clone supernatant) VH: EVQLVESGGGLVQPGGSLRLSCAASGYSFTDYDMSWVRQAPGKGLEWVSGIKTYKSDARYADSVKGRFTISRDNSKNTLYLQMNSLRAEDTAVYYCAREYSDVVDYVSVRTPLDYWGQGTLVTVSS VL: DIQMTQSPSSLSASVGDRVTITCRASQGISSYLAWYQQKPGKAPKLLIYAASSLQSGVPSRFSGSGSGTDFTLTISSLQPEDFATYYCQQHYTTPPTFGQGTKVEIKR	1.59
1F3-2D8 scFv (scFv, V domains shown, phage clone supernatant) VH: EVQLVESGGGLVQPGGSLRLSCAASGYSFSDYGMSWVRQAPGKGLEWVSRISPSKAVKDYADSVKGRFTISRDNSKNTLYLQMNSLRAEDTAVYYCARAELLAFDVYTASDYWGQGTLVTVSS VL: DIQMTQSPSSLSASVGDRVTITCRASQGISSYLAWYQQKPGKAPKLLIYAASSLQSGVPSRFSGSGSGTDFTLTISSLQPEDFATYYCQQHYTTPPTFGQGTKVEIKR	1.56

If you can, please state the reported OD value value of 10F4-1F2 scFv (scFv, V domains shown, phage clone supernatant) VH: EVQLVESGGGLVQPGGSLRLSCAASGYNFTNYYMSWVRQAPGKGLEWVSSISAYSDNRNYADSVKGRFTISRDNSKNTLYLQMNSLRAEDTAVYYCAREYSDVVDYVSVRTPLDYWGQGTLVTVSS VL: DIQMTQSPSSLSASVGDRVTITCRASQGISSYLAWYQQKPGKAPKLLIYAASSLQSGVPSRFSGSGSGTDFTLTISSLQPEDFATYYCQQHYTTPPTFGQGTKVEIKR . 1.4
